Origin of values: patent US12371438B2

system: platelet aggregation; assay: In vitro anti-platelet aggregation activity evaluation (PAF-induced, platelet-rich plasma); format: cell-based, New Zealand white rabbits; conditions: Oryctolagus cuniculus, Platelet, 1 μM drug, PAF-induced, rabbit PRP, corrected to blank = 100, n=5; read-out: Platelet aggregation rate (%, 1 μM)
Each record here notes measured activity at 1 µM.

Challenge: Param item = COC(=O)COCCO[C@H]1C(=O)O[C@H]2O[C@]34C(=O)OC5C[C@@H](C(C)(C)C)C21[C@@]53[C@@H](O)[C@@H]1OC(=O)C(C)[C@@]14O (stereo partly shown) ; retrieve measured activity at 1 µM.
Response given: 46.7%

Challenge: # activity at 1 µM lookup, item CC1C(=O)O[C@H]2[C@H](O)[C@@]34C5C[C@@H](C(C)(C)C)C36[C@@H](OC(=O)[C@@H]6OCCOCCOCC(=O)O)O[C@@]4(C(=O)O5)[C@@]12O (stereo partly shown)
Response given: 35%

Challenge: Using the record for CC1C(=O)O[C@H]2[C@H](O)[C@@]34C5C[C@@H](C(C)(C)C)C36[C@@H](OC(=O)[C@@H]6OCCOCC(=O)O)O[C@@]4(C(=O)O5)[C@@]12O (stereo partly shown) [Embodiment 8, 2-(Ginkgolide B-10-oxyethoxy)acetic Acid] , report its activity at 1 µM.
Response given: 23.7%

Challenge: Would you kindly share the measured activity at 1 µM for CC1C(=O)O[C@H]2[C@H](O)[C@@]34C5C[C@@H](C(C)(C)C)C36[C@@H](OC(=O)[C@@H]6OC/C=C/C(=O)O)O[C@@]4(C(=O)O5)[C@@]12O (stereo partly shown) [Embodiment 6, 4-(Ginkgolide B-10-oxy)-2-butenoic Acid] ?
Response given: 45.7%
